Reference source for all entries: patent USRE46585

Target under test: T1, FcRn-p3 fusion protein (human, UniProt P55899 24-297; P61769 21-119)
T1 construct: baculovirus expressed; coated on ELISA wells; not shown: amino terminal part of bacteriophage p3 protein and CVDE protein
T1 sequence (P55899 24-297, chain 1 of 2): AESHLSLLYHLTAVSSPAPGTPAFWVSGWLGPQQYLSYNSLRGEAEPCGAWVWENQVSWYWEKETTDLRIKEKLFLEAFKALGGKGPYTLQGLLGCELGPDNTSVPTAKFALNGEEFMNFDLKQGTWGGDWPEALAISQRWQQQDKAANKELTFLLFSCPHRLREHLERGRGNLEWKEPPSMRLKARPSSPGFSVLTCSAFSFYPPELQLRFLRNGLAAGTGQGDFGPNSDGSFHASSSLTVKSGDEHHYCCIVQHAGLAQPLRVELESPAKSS
T1 sequence (P61769 21-119, chain 2 of 2): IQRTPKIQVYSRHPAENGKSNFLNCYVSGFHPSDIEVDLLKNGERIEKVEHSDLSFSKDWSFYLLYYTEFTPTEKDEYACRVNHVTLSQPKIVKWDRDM
Assay details: phage ELISA pH6
Parameter Ratio/Fc-H: see the listing below.
Report the value in fold with no unit label.

{"Binder": "C8A_61 (other, EU numbering) CPPCTAPELLGGPSVFLFPPKPKDTLMISRTPEVTCVVEDVSHEDPEVKFNWYVDGVEVHNAKTKPREEQYNSTYRVVSVLTVLHQDWLNGKEYKCKVSNKALPAPIEKTISKAKGQPREPQVYTLPPSRDELTKNQVSLTCLVKGFYPSDIAVEWESNGQPENNYKTTPLVLDSDGSFFLYSKLTVDKSRWQQGNVFSCSVMHEALHYHYTQKSLSLSPGK", "Recorded value": 1.7}
{"Binder": "C5A_20 (other, EU numbering) CPPCPAPELLGGPSVFLFPPKPKDTLMISRTPEVTCVVVDVSHEDPEVKFNWYVDGVEVHNAKTKPREEQYNSTYRVVSVLTVLHQDWLDGKEYKCKVSNKALPAPIEKTISKAKGQPREPQVYTLPPSRDELTKNQVSLTCLVKGFYPSDIAVEWESNGQPENNYKTTPPVLDSDGSFFLYSKLTVDKDRWQQGNVFSCSVMHEALHYHYTQKSLSLSPGK", "Recorded value": 2.6}

// below: Ratio/Fc-H requested for another binder
Query: Ratio/Fc-H; subject: C6A_12 (other, EU numbering) CPPCTAPELLGGPSVFLFPPKPKDTLMISRTPEVTCVVVDVSHEDPEVKFNWYVDGVEVHNAKTKPREEQYNSTYRVVSVLTVLHQDWLDGKEYKCKVSNKALPAPIEKTISKAKGQPREPQVYTLPPSRDELTKNEVSLTCLVKGFYPSDIAVEWESNGQPENNYKTTPPVLDSDGSFFLYSKLTVDKSRWQQGNVFSCSVMHEALHYHYTQKSLSLSPGK
Reply: 4.6
